Let's look at some compounds and their measured log10 of Activity.
- System Name: SEQ ID NO 19, mutant of Zea mays bx9 glucosyl transferase (Zea mays, UniProt B4G072, A281K/A334K/L194V/M279F/S117V)
- Construct: His tag (C); made in house
- Sequence (B4G072 whole entry S117V/L194V/M279F/A281K/A334K): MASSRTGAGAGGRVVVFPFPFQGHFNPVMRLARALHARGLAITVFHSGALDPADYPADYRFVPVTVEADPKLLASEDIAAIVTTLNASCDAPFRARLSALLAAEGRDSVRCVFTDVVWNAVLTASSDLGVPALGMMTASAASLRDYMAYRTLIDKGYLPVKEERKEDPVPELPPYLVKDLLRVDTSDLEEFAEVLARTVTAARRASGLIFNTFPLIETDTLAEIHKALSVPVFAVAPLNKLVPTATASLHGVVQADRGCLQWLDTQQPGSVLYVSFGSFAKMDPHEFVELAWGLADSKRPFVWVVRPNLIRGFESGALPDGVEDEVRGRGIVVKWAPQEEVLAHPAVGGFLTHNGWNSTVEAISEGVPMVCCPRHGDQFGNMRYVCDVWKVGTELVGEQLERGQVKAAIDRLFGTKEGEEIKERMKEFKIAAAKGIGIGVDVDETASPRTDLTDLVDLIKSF
- Test Description: UDP-Glo glucosyl transferase assay, purified enzyme
- Type: biochemical
- Experimental Setup: herbicide mM: V 0.300, VI 0.250, VII 0.210; IV, VIII, XI, XXI, XX, XVIII, XVI, XV, XIV 0.200; others 1.000
Measured Parameter: log10 of Activity (log10 of the value in pmol/sec/pmol enzyme)

Compound	Measured Parameter	Reported Value
CN1CC(O)N(c2cc(C(C)(C)C)ncn2)C1=O (stereo not shown) [IV]	log10 of Activity	-1.28
CN1CC(O)N(c2cc(C(F)(F)F)ncn2)C1=O (stereo not shown) [XXV]	log10 of Activity	-0.24
CN1CC(O)N(c2cc(C(C)(C)C)on2)C1=O (stereo not shown) [XXII]	log10 of Activity	-1.10
CN1CC(O)N(c2nnc(C(C)(C)C)s2)C1=O (stereo not shown) [IX]	log10 of Activity	-1.15
CN1CC(O)N(c2cc(C(F)(F)F)ccn2)C1=O (stereo not shown) [Compound V]	log10 of Activity	0.22
C[C@@H]1C(O)N(c2noc(C(C)(C)C)c2C#N)C(=O)[C@@H]1C (stereo partly shown) [XIII]	log10 of Activity	-1.02
CC1C(=O)N(c2cc(C(F)(F)F)n(C)n2)C(O)[C@@H]1C (stereo partly shown) [XVII]	log10 of Activity	-0.48
CON1C(=O)N(c2cc(C(F)(F)F)c(C)cn2)C(O)[C@@H]1C (stereo partly shown) [XV]	log10 of Activity	0.14
CON1C(=O)N(c2cc(C(F)(F)F)c(Cl)cn2)C(O)C1C (stereo not shown) [XXI]	log10 of Activity	0.19
C[C@H]1C(O)N(c2cc(C(F)(F)F)ccn2)C(=O)N1C (stereo partly shown) [XXIV]	log10 of Activity	0.13
CN1CC(O)N(c2cc(C(C)(C)C)c(Cl)nn2)C1=O (stereo not shown) [III]	log10 of Activity	-1.01
C[C@@H]1C(=O)N(c2noc(C(C)(C)C)c2C#N)C(O)[C@H]1C (stereo partly shown) [XXVI]	log10 of Activity	-1.02
COC1=C(C)C(O)N(c2cc(C(C)(C)C)ncn2)C1=O (stereo not shown) [X]	log10 of Activity	-0.99
C[C@H]1C(=O)N(c2noc(C(C)(C)C)c2C#N)C(O)[C@@H]1C (stereo partly shown) [XXIII]	log10 of Activity	-1.14
Cc1cnc(N2C(=O)N(C)C(C)C2O)cc1C(F)(F)F (stereo not shown) [XX]	log10 of Activity	-0.18
Cc1cnc(N2C(=O)N(C)CC2O)cc1C(F)(F)F (stereo not shown) [XVIII]	log10 of Activity	-0.02
CC1C(O)N(c2cc(C(F)(F)F)c(Cl)cn2)C(=O)N1C (stereo not shown) [XIX]	log10 of Activity	-0.44
C[C@@H]1C(O)N(c2cc(C(C)(C)C)on2)C(=O)[C@@H]1C (stereo partly shown) [VIII]	log10 of Activity	-1.11
CN1CC(O)N(c2cc(C(F)(F)F)c(Cl)cn2)C1=O (stereo not shown) [XI]	log10 of Activity	-0.05
